The reported numbers originate from the DeepSol protein solubility set.

- protocol-text: soluble on expression in E. coli; label from the status in PepcDB or PDB records
experimental-readout: soluble on expression in E. coli

As a guide, the following entries are already answered.
{"columns": ["primary-sequence", "soluble on expression in E. coli"],
 "data": [
  ["NLPNIVILATGGTIAGSAAANTQTTGYKAGALGVETLIQAVPELKTLANIKGEQVASIGSENMTSDVLLTLSKRVNELLARSDVDGVVITHGTDTLDESPYFLNLTVKSDKPVVFVAAMRPATAISADGPMNLYGAVKVAADKNSRGRGVLVVLNDRIGSARFISKTNASTLDTFKAPEEGYLGVIIGDKIYYQTRLDKVHTTRSVFDVTNVDKLPAVDIIYGYQDDPEYMYDASIKHGVKGIVYAGMGAGSVSKRGDAGIRKAESKGIVVVRSSRTGSGIVPPDAGQPGLVADSLSPAKSRILLMLALTKTTNPAVIQDYFHAY", "soluble"],
  ["MGSDKIHHHHHHMNAPDTSLAGASTASTASYDSAADGYNFAYLDEQTKRMLRRALLKAVAVPGYQVPFASREMPLPFGWGTGGIQVTAAIIGRKDTLKVIDQGSDETTNAVNIRRFFARTTGVATTRRTVDATIIQTRHRIPETPLTERQILVYQVPMPEPLFRLEPRVAECRKLHALADYGLISVKLYEDIVHHGSIATTYDYPVIVNHRYLASPSPIPKFDNPKMHMNPALQLFGAGRERRIHAIPPYTPVRSLDFDDHPFEVQKWHHACALCGSTESFLDEMIVDDAGKRMFVCSDSDYCHERRGDADFDPPSRDAGKGEPA", "not soluble"],
  ["LKELHILTRDGKINQDTRRKLKQVYHLYQFIEPLMADVLEKKGAMTLADHGAGKSYLGFILYDLFLKEKAAGHVYGVETRQELVDKSRELAERLGFERMGFLNLTVEQSITSTALPEQVDIITALHACNTATDDAIRFALAKDAQYIVLVPCCQAEVASVLRQKKNETFGKTPLSELWRHPIHTRE", "not soluble"],
  ["MGTSFRQYFKIVPALTEELKREAYRVRHSVYCEDLQFESSRSDGFEIDEYDAHSLHLLIRSINNDTFIGCTRIIRPSSNSNDRRLPFEKTCAQTLDRSIIDPSRLPADKIGEVSRLAVIAAFRRRKGEKNHPINISEEDFSTGPMMRFPYIPLSLYIGTIELARIHDIRVLFMLTEERLASHFSRLGAQLEPIGAPVEHRGLRFPSMVEINSIISNMRPIFRPLYQAIAEDIKAELEKKNH", "not soluble"]
]}

Attention now turns to another entry.
State its soluble on expression in E. coli for this sequence: MSLIIDCHGHVSAPVELWAYKASLLAHRGSHGRGGVKVTDEQIIAAAHHKETWPDGHIELLHNHGTDMQLISPRTFQMMNSAKPARVVHWFCEEVNTLIHRQCTLIPEMFIPVAGLPQVAGEPIENVFAEMDRCVSMGFKGFLLNPDPYENGAEEAPPLGDRYWYPLYEKLCELDLPAHIHATGSQSERSPYSLHFINEETIATYNLCTSSVFDDFPQLKVVVSHGGGAIPYQLGRFESQSRRSKHLFSERMAKLYFDTVLYTEGALRLLIETVGPERCLFGSECPGVGSTIDPATGKQMDHIAPFIQKFDFLSDADKKLIFEDNARKVFNLEVEGHHHHHH
soluble
